target: Neu5Ac(a2-6)Gal(b1-4)GlcNAc(b1-3)Gal(b1-4)[Fuc(a1-3)]GlcNAc(b1-3)Gal(b1-4)[Fuc(a1-3)]GlcNAc; assay: glycan array binding signal (z-score within array); higher = stronger binding; settings: glycan notation: IUPAC condensed, linker removed
Many of the other results were omitted from the sample, so the strongest signals are more common in it than they were.
Please enter Satisfied where glycan array binding signal (z-score) is greater than or equal to -0.4, and Not satisfied where it is lower.

// known answers, use as guide
binder | label.class
CD83 (Homo sapiens) (protein) MSRGLQLLLLSCAYSLAPATPEVKVACSEDVDLPCTAPWDPQVPYTVSWVKLLEGGEERMETPQEDHLRGQHYHQKGQNGSFDAPNERPYSLKIRNTTSCNSGTYRCTLQDPDGQRNLSGKVILRVTGCPAQRKEETFKKYRAETSEQKLISEEDLSRGSDDDDKAEPRGP | Satisfied
NKp30 (Homo sapiens), O14931 (protein) LWVSQPPEIRTLEGSSAFLPCSFNASQGRLAIGSVTWFRDEVVPGKEVRNGTPEFRGRLAPLASSRFLHDHQAELHIRDVRGHDASIYVCRVEVLGLGVGTGNGTRLVVEKEHPQLG | Not satisfied
Regenerating Gene I (Homo sapiens), P05451 (protein) MAQTSSYFMLISCLMFLSQSQGQEAQTELPQARISCPEGTNAYRSYCYYFNEDRETWVDADLYCQNMNSGNLVSVLTQAEGAFVASLIKESGTDDFNVWIGLHDPKKNRRWHWSSGSLVSYKSWGIGAPSSVNPGYCVSLTSSTGFQKWKDVPCEDKFSFVCKFKN | Satisfied
MpAFP NterminalRI GFP (Marinomonas primoryensis) (protein) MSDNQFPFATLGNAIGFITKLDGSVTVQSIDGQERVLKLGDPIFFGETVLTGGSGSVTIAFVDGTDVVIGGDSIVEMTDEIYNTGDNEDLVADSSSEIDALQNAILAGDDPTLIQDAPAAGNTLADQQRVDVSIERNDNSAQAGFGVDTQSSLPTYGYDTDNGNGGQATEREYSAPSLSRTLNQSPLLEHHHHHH | Satisfied
CVN (Nostoc ellipsosporum), P81180 (protein) LGKFSQTCYNSAIQGSVLTSTCERTNGGYNTSSIDLNSVIENVDGSLKWQPSNFIETCRNTQLAGSSELAAECKTRAQQFVSTKINLDDHIANIDGTLKYE | Satisfied

Turning to the following binder.
Q: In plain terms: is recorded glycan array binding signal (z-score) at least -0.4 for NKp30 (Homo sapiens), O14931 (protein) MAWMLLLILIMVHPGSCALWVSQPPEIRTLEGSSAFLPCSFNASQGRLAIGSVTWFRDEVVPGKEVRNGTPERFGRLAPLASSRFLHDHQAELHIRDVRGHDASIYVCRVEVLGLGVGTGNGTRLVVRKEHPQLGAGTHADPEAPEAEGAPSVFLFPPKPKDTLMISRTPEVTCVVVDVSHEDPEVKFNWYVDGVEVHNAKTPREEQYNSTYRVVSVLTVLHQDWLNGKEYKCKVSNKALPAPIEKTISKAKGQPREPQVYTLPPSRDELTKNQVSLTCLVKGFYPSDIAVEWESNGQPENNYKTTPPVLDSDGSFFLYSKLTVDKSRWQQGNVFSCSVMHEALHNHYTQKSLSLSPGK ?
A: Satisfied

These entries and their values trace back to the supplement of paper PMC8728848.
